# Tested on: BDF1 mice, P388 leukemia ip, median survival T/C
# ASSAY_OVERVIEW: NCI In Vivo Anticancer Drug Screen. Data for tumor model P388 Leukemia (intraperitoneal) in B6D2F1 (BDF1) mice
# SETUP_CONDITIONS: endpoint: median survival time; dose: 400.0 mg/kg/injection; schedule: Q01DX001 (ip); vehicle: saline with Tween-80; higher = longer survival
Toxic doses and inconclusive results are not listed.
Measured T/C, listed per entry for reference.

Cc1cccc(-n2nc3c(=O)n(C)c(=O)n(C)c3nc2=O)c1 : 92 % of control
COc1cc(/C=N/N=C(\N)N[N+](=O)[O-])cc(OC)c1OC : 90 % of control
O=C(CC(O)(C(F)(F)F)C(F)(F)F)c1cccc(Cl)c1 : 118 % of control

Record request: T/C value, item `CC(=O)Nc1ccc(NNCc2ccccc2)c(N)c1` 91 % of control

Record request: T/C value, item `O=C(O)c1cc(O)c(Br)c(O)c1` 104 % of control

Record request: T/C value, item Cc1ccc(C(O)c2c(C)cc(C)cc2C)c(C)c1 (stereo unspecified) 100 % of control

----------
# Tested on: BDF1 mice, P388 leukemia ip, median survival T/C
# ASSAY_OVERVIEW: NCI In Vivo Anticancer Drug Screen. Data for tumor model P388 Leukemia (intraperitoneal) in B6D2F1 (BDF1) mice
# SETUP_CONDITIONS: endpoint: median survival time; dose: 25.0 mg/kg/injection; schedule: Q01DX009 (ip); vehicle: saline with Tween-80
Inconclusive results and toxic doses are left out. The calls were made as follows: active = survival T/C of 150% or more; inactive = T/C below 125% in these data.
Output constraint: value belongs to active, inactive

Here's what some known entries look like.
O=S(=O)(CCl)OCCCl : inactive
CC(=O)Nc1ccc2c(c1)C[N+](C)(C1CCCCC1)CO2 (stereo not given) : inactive
COc1ccc(C2CC(c3ccccc3O)=NC(c3ccc(OC)cc3)N2)cc1 (stereo not given) : inactive
O=C(Nc1ccc(-c2cn3ccccc3n2)cc1)c1cc(Br)ccc1O : inactive
CCCC(C)(C)SSC(C)(C)CCC : inactive

Now look at this entry.
So what was the verdict on `N/C(=N\[N+](=O)[O-])N(CCCCl)N=O` in this test? inactive

----------
# System: BDF1 mice, P388 leukemia ip, median survival T/C
# ASSAY_OVERVIEW: NCI In Vivo Anticancer Drug Screen. Data for tumor model P388 Leukemia (intraperitoneal) in B6D2F1 (BDF1) mice
# SETUP_CONDITIONS: endpoint: median survival time; dose: 200.0 mg/kg/injection; schedule: Q01DX001 (ip); vehicle: Klucel (hydroxypropylcellulose) (HPC); higher = longer survival
Toxic doses and inconclusive results are not listed.
Measured T/C, listed per entry for reference.

Recall the recorded T/C for `c1ccc(C2=C(c3ccccc3)c3cccc4cccc2c34)cc1` with BDF1 mice, P388 leukemia ip, median survival T/C and state it. 105 % of control

Recall the recorded T/C for `Cc1ccccc1C(c1ccccc1C)c1ccccc1C(=O)O` with BDF1 mice, P388 leukemia ip, median survival T/C and state it. 109 % of control

Recall the recorded T/C for `S=c1[nH]c2ccccc2s1` with BDF1 mice, P388 leukemia ip, median survival T/C and state it. 108 % of control

Recall the recorded T/C for `CC(C)(C)CC(C)(C)c1ccc(OCCOc2ccccc2NC(=O)CC(=O)c2cccc([N+](=O)[O-])c2)cc1` with BDF1 mice, P388 leukemia ip, median survival T/C and state it. 95 % of control

Recall the recorded T/C for `COc1ccc(N2CSC(=S)N(c3ccc(OC)cc3)C2)cc1` with BDF1 mice, P388 leukemia ip, median survival T/C and state it. 87 % of control

Hello, the source for this data is PubChem BioAssay AID328, in case you need it.
